These entries and their values trace back to patent US20210145976A1.

# target.desc: CD71 on SK-BR-3 cells (human, UniProt P02786 1-760)
# Sequence (P02786 whole entry): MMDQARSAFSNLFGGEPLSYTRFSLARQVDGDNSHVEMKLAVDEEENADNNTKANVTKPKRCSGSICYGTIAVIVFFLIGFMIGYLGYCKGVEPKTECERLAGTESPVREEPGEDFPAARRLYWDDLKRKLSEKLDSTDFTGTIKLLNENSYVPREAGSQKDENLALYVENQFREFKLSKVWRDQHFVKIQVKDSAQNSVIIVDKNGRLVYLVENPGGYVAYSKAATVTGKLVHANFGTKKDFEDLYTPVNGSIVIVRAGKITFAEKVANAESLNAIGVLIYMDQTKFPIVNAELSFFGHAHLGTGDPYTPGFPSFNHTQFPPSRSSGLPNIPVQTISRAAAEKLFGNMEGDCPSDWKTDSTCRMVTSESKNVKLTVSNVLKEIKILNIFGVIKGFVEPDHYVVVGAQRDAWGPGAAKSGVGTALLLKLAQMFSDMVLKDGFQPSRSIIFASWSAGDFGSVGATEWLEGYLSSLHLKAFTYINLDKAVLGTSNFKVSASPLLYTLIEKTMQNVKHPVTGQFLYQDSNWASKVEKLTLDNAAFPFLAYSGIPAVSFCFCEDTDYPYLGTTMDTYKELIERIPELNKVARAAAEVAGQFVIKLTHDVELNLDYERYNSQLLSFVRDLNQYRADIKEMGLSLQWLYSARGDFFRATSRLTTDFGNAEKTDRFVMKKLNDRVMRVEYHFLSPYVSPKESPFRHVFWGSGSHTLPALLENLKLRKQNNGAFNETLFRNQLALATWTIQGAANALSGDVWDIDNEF
# procedure.text: cell-based or functional assay
assay.metric: IC50, SKBR-3 viability, MMAF conjugate, second unlabelled column (+/- human transferrin) (µM)
Number only, in µM; omit the unit.

binder: SEQ ID NO 174 (designed binder, FN3 domain) MLPAPKNLVVSRVTEDSARLSWTAPDAAFDSFFIGYLEPQPPGEAIVLTVPGSERSYDLTGLKPGTEYKVVIQGVKGGTPSEPLSAIFTT
endpoint.result: 0.158

// SEQ ID NO 104 (designed binder, FN3 domain) MLPAPKNLVVSHVTEDSARLSWTAPDAAFDSFDIEYYELVGSGEAIVLTVPGSERSYDLTGLKPGTEYYVAIYGVKGGYLSRPLSAIFTT : IC50, SKBR-3 viability, MMAF conjugate, second unlabelled column (+/- human transferrin) value = 0.0059

Looking up SEQ ID NO 85 (designed binder, FN3 domain) MLPAPKNLVVSRVTEDSARLSWTAPDAAFDSFFIWYWEKSVDGEAIVLTVPGSERSYDLTGLKPGTEYNVGIQGVKGGTPSDPLSAIFTT , I found its IC50, SKBR-3 viability, MMAF conjugate, second unlabelled column (+/- human transferrin) recorded as 0.089

Recorded IC50, SKBR-3 viability, MMAF conjugate, second unlabelled column (+/- human transferrin) (binder SEQ ID NO 152 (designed binder, FN3 domain) MLPAPKNLVVSRVTEDSARLSWTAPDAAFDSFFIGYLEPQPPGEAIVLTVPGSERSYDLTGLKPGTEYNVTIQGVKGGFPSSPLSAIFTT ): 0.00524
